# ASSAY_DETAILS: Pharmacokinetic study, plasma concentration after p.o. administration
# Format: in vivo, male BALB/c mice
# EXPERIMENTAL_CONDITIONS: male, BALB/c, mouse, plasma, po, 100 mg/kg, plasma analyte after p.o. acetyl-leucine 100 mg/kg, male BALB/c mice
ENDPOINT_NAME: AUC(0-t) (ng·h/mL)

1. CC(=O)N[C@H](CC(C)C)C(=O)O [acetyl-D-leucine, N-acetyl-D-leucine, reference compound]
2. CC(=O)N[C@@H](CC(C)C)C(=O)O [acetyl-L-leucine, N-acetyl-L-leucine, reference compound]
**Q:** Quick one: lower AUC(0-t), 1 or 2 ? Field: selected label. Fill in the label of the entry you choose.
**A:** 2
(2: 2600 ng·h/mL, 1: 57800 ng·h/mL)

---

# ASSAY_DETAILS: Pharmacokinetic study, plasma concentration after p.o. administration
# Assay type: in vivo, male BALB/c mice
# EXPERIMENTAL_CONDITIONS: male, BALB/c, mouse, plasma, po, 100 mg/kg, plasma analyte after p.o. acetyl-L-leucine-2,3,3,4-d4 (1) 100 mg/kg, male BALB/c mice
ENDPOINT_NAME: AUC(0-t) (ng·h/mL)

P. [2H]C(C)(C)C([2H])([2H])[C@@]([2H])(NC(C)=O)C(=O)O
Q. [2H]C(C)(C)C([2H])([2H])[C@]([2H])(NC(C)=O)C(=O)O
**Q:** Quick one: lower AUC(0-t), P or Q ? Field: selected label. Fill in the label of the entry you choose.
**A:** P

---

# ASSAY_DETAILS: Pharmacokinetic study, plasma concentration after p.o. administration
# Format: in vivo, male BALB/c mice
# EXPERIMENTAL_CONDITIONS: male, BALB/c, mouse, plasma, po, 100 mg/kg, plasma analyte after p.o. acetyl-leucine-2,3,3,4-d4 (1-rac) 100 mg/kg, male BALB/c mice
ENDPOINT_NAME: AUC(0-t) (ng·h/mL)

a. [2H]C(C)(C)C([2H])([2H])[C@]([2H])(NC(C)=O)C(=O)O [acetyl-L-leucine-2,3,3,4-d4, Acetyl-L-leucine-2,3,3,4-d4]
b. [2H]C(C)(C)C([2H])([2H])[C@@]([2H])(NC(C)=O)C(=O)O [acetyl-D-leucine-2,3,3,4-d4]
**Q:** Quick one: lower AUC(0-t), a or b ? Field: selected label. Fill in the label of the entry you choose.
**A:** a
